tested on: lambsquarters (Chenopodium album, CHEAL); assay: Post-emerge test, greenhouse herbicide activity screening; assay type: in vivo; conditions: post-emerge, 250 g ai/ha, 14 days after application, rating scale 0-100
This section presents compounds with their documented CHEAL phytotoxicity rating values.
Respond using a number only.

Query: Give its CHEAL phytotoxicity rating value. Item: CCOC(=O)C(C)SCC(=O)Nc1c(OC)c(Cl)cc(F)c1-n1c(=O)cc(C(F)(F)F)n(C)c1=O (stereo not shown)
Result: 90

Query: Then this compound: Cn1c(C(F)(F)F)cc(=O)n(-c2c(F)cc(OC(F)F)cc2NC(=O)c2ccc3ccccc3c2)c1=O
Result: 100

Query: Param item: COc1c(C#N)cc(F)c(-n2c(=O)cc(C(F)(F)F)n(C)c2=O)c1NC(=O)c1ccc2ccccc2c1 [2-181]
Result: 100

Query: Also, COc1c(C#N)cc(F)c(-n2c(=O)cc(C(F)(F)F)n(C)c2=O)c1NC(=O)C=Cc1ccccc1 please.
Result: 100

Query: Request: COc1c(Cl)cc(F)c(-n2c(=O)cc(C(F)(F)F)n(C)c2=O)c1NC(=O)c1ccc2cccc(F)c2c1
Result: 100

Query: Now consider C=Cc1ccc(C(=O)Nc2c(OC)c(Br)cc(F)c2-n2c(=O)cc(C(F)(F)F)n(C)c2=O)cc1 .
Result: 100

Query: Another compound: Cn1c(C(F)(F)F)cc(=O)n(-c2ccc(C(F)(F)F)cc2NC(=O)c2ccc3ccccc3c2)c1=O
Result: 95

Query: Also COc1c(Cl)cc(F)c(-n2c(=O)cc(C(F)(F)F)n(C)c2=O)c1NC(=O)COc1ccc(F)cc1 ?
Result: 100

Query: Another compound: Cn1c(C(F)(F)F)cc(=O)n(-c2ccc(C#N)cc2NC(=O)c2ccc3ccccc3c2)c1=O
Result: 100

Query: How about this compound: COc1c(Cl)cc(F)c(-n2c(=O)cc(C(F)(F)F)n(C)c2=O)c1NC(=O)CSC(C)C
Result: 65

Query: Would you kindly repeat that for COc1c(C#N)cc(F)c(-n2c(=O)cc(C(F)(F)F)n(C)c2=O)c1NC(=O)c1ccc2ccccc2c1 [2-180] ?
Result: 100

Query: Next: COc1c(Cl)cc(F)c(-n2c(=O)cc(C(F)(F)F)n(C)c2=O)c1NC(=O)c1ccc2c(C#N)cccc2c1
Result: 100

Query: Here is the next compound: CCOC(=O)CSCC(=O)Nc1c(OC)c(Cl)cc(F)c1-n1c(=O)cc(C(F)(F)F)n(C)c1=O
Result: 50

Query: Similarly, COc1c(Cl)cc(F)c(-n2c(=O)cc(C(F)(F)F)n(N)c2=O)c1NC(=O)C=Cc1ccccc1 ?
Result: 100

Query: Next compound up: Cn1c(C(F)(F)F)cc(=O)n(-c2ccc(Cl)cc2NC(=O)c2ccc3ccccc3c2)c1=O
Result: 100

Query: Would you kindly repeat that for COc1c(Cl)cc(F)c(-n2c(=O)cc(C(F)(F)F)n(C)c2=O)c1NC(=O)CCc1cc(C)ccc1C ?
Result: 100
